assay: Extended single-dose toxicity study including safety pharmacology endpoints, i.v. bolus (GLP); assay type: in vivo, beagle dogs; conditions: beagle, dog, plasma, iv, 16 ug/kg; Female; 16 μg/kg single i.v. bolus; harmonic mean

smiles.representation | half-life, min
CC(C)C[C@@H]1NC(=O)[C@H](Cc2cccc(NC(=O)CCCS(N)(=O)=O)c2)NC(=O)[C@H](CC(=O)O)NC(=O)[C@H]2CCCN2C(=O)[C@H](CCC(=O)O)NC(=O)[C@@H](NC(=O)[C@H](CCC(N)=O)NC(=O)CN2CCN(C(=O)CN3CCN(CC(=O)O)CCN(CC(=O)O)CCN(CC(=O)O)CC3)CC2)CSCc2cccc(c2)CSC[C@@H](C(N)=O)NC(=O)[C@H](CO)NC(=O)[C@H](Cc2c[nH]c3ccccc23)NC(=O)[C@H]([C@@H](C)O)NC1=O | 14.3
